- target: Signal transducer and activator of transcription 6 (Homo sapiens)
- Sequence (P42226 whole entry): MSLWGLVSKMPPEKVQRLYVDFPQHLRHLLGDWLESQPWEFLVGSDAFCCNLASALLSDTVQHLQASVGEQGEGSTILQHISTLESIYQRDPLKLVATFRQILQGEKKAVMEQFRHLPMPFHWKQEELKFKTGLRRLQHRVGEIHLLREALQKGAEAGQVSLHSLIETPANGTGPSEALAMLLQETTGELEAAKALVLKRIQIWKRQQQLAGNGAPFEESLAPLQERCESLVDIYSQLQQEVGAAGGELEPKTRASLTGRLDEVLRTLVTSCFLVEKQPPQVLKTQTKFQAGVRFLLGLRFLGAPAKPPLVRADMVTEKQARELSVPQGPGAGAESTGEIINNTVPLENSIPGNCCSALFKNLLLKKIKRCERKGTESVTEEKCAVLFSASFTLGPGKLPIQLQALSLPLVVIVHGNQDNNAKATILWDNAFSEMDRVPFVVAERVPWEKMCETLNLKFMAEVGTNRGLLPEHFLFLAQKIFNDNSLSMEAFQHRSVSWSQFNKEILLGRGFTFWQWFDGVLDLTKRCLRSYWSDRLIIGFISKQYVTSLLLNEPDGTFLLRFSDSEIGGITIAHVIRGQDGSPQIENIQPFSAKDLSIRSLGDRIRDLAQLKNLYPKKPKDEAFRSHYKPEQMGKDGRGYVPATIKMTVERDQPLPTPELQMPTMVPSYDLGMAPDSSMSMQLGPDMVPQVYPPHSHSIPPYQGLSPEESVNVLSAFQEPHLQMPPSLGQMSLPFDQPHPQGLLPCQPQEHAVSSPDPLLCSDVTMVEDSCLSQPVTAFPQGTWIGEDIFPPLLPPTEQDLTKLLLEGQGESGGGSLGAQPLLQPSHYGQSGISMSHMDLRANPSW
Peptide text beside a SMILES is read from it.
measure.name: pIC50
One number for each entry, as −log10 of the molar value.

Solved entries:
Reported pIC50 of CC(C)(C)[C@H](NC(=O)c1cc2cc(OP(=O)(O)O)ccc2[nH]1)C(=O)N1CCC[C@H]1C(=O)N(c1ccccc1)c1ccc(I)cc1 : 6.85

Reported pIC50 of CC[C@H](C)[C@H](NC(=O)[C@H](CC(C)C)NC(=O)[C@H](CC(=O)O)NC(=O)[C@H](CCC(N)=O)NC(=O)[C@H](Cc1ccccc1)NC(=O)[C@@H]1CCCN1C(=O)[C@H](CCCCN)NC(=O)[C@H](Cc1ccc(OP(=O)(O)O)cc1)NC(C)=O)C(N)=O (HELM PEPTIDE1{[ac].[O=C([C@H](Cc1ccc(OP(=O)(O)O)cc1)N[*:1])[*:2]].K.P.F.Q.D.L.I.[am]}$$$$V2.0) : 5.74

Reported pIC50 of CC(=O)N[C@@H](Cc1ccc(OP(=O)(O)O)cc1)C(=O)N[C@@H](CCCCN)C(=O)N1CCC[C@H]1C(=O)N[C@@H](Cc1ccccc1)C(=O)N[C@@H](CCC(N)=O)C(N)=O (HELM PEPTIDE1{[ac].[O=C([C@H](Cc1ccc(OP(=O)(O)O)cc1)N[*:1])[*:2]].K.P.F.Q.[am]}$$$$V2.0) : 5.38

Reported pIC50 of CC(=O)N[C@@H](Cc1ccc(OP(=O)(O)O)cc1)C(=O)N[C@@H](CCCCN)C(=O)N1CCC[C@H]1C(=O)N[C@@H](Cc1ccccc1)C(=O)N[C@@H](CCC(N)=O)C(=O)N[C@@H](CC(=O)O)C(=O)N[C@@H](CC(C)C)C(N)=O (HELM PEPTIDE1{[ac].[O=C([C@H](Cc1ccc(OP(=O)(O)O)cc1)N[*:1])[*:2]].K.P.F.Q.D.L.[am]}$$$$V2.0) : 5.62

Reported pIC50 of C/C(=C\C(=O)N[C@H](C(=O)N(C)CC(=O)N(C)c1ccccc1)C(C)(C)C)c1ccc(OP(=O)(O)O)cc1 : 6.57

Give measured pIC50 for every item shown.
1. CC(=O)N[C@@H](Cc1ccc(OP(=O)(O)O)cc1)C(=O)N[C@@H](CCCCN)C(=O)N1CCC[C@H]1C(N)=O (HELM PEPTIDE1{[ac].[O=C([C@H](Cc1ccc(OP(=O)(O)O)cc1)N[*:1])[*:2]].K.P.[am]}$$$$V2.0)
2. C/C(=C\C(=O)N[C@H](C(=O)N1CCCC1/C=C/CCc1ccccc1)C(C)(C)C)c1ccc(OP(=O)(O)O)cc1 (stereo not given in full)
3. C/C(=C\C(=O)N[C@H](C(=O)N1CCCC1/C=C/c1ccccc1)C(C)(C)C)c1ccc(OP(=O)(O)O)cc1 (stereo not given in full)
4. CC(=O)N[C@@H](Cc1ccc(OP(=O)(O)O)cc1)C(=O)N[C@@H](CCCCN)C(=O)N1CCC[C@H]1C(=O)N[C@@H](Cc1ccccc1)C(N)=O (HELM PEPTIDE1{[ac].[O=C([C@H](Cc1ccc(OP(=O)(O)O)cc1)N[*:1])[*:2]].K.P.F.[am]}$$$$V2.0)
5. C/C(=C\C(=O)N[C@H](C(=O)N1CCCC1CN(C)c1ccccc1)C(C)(C)C)c1ccc(OP(=O)(O)O)cc1 (stereo not given in full)
6. C/C(=C\C(=O)N[C@H](C(=O)N1CCCC1CCCCc1ccccc1)C(C)(C)C)c1ccc(OP(=O)(O)O)cc1 (stereo not given in full)
7. NCCCC[C@H](NC(=O)[C@H](Cc1ccc(OP(=O)(O)O)cc1)NC(=O)/C=C/c1ccccc1)C(=O)N1CCC[C@H]1C(=O)N[C@@H](Cc1ccccc1)C(N)=O (HELM PEPTIDE1{[O=C(/C=C/c1ccccc1)[*:2]].[O=C([C@H](Cc1ccc(OP(=O)(O)O)cc1)N[*:1])[*:2]].K.P.F.[am]}$$$$V2.0)

Result:
5.28
6.27
5.46
5.21
6.39
5.97
5.18

Give measured pIC50 for every item shown.
1. CN(C(=O)[C@@H]1CCCN1C(=O)[C@@H](NC(=O)/C=C/c1ccc(OP(=O)(O)O)cc1)C(C)(C)C)c1ccccc1
2. C/C(=C\C(=O)N[C@H](C(=O)N1CCC[C@H]1C(=O)NCCc1ccccc1)C(C)(C)C)c1ccc(OP(=O)(O)O)cc1
3. C/C(=C\C(=O)N[C@H](C(=O)N(C)[C@@H](C)C(=O)N(C)c1ccccc1)C(C)(C)C)c1ccc(OP(=O)(O)O)cc1
4. C/C(=C\C(=O)N[C@H](C(=O)N1CCC[C@H]1C(=O)N(c1ccccc1)c1ccc(I)cc1)C(C)(C)C)c1ccc(OP(=O)(O)O)cc1
5. CC(C)(C)[C@H](NC(=O)/C=C/c1ccc(OP(=O)(O)O)cc1)C(=O)N1CCC[C@H]1C(=O)Nc1ccccc1
6. CC(=O)N[C@@H](Cc1ccc(OP(=O)(O)O)cc1)C(=O)N[C@@H](CCCCN)C(=O)N1CCC[C@H]1C(=O)N[C@@H](Cc1ccccc1)C(=O)N[C@@H](CCC(N)=O)C(=O)N[C@@H](CC(=O)O)C(N)=O (HELM PEPTIDE1{[ac].[O=C([C@H](Cc1ccc(OP(=O)(O)O)cc1)N[*:1])[*:2]].K.P.F.Q.D.[am]}$$$$V2.0)
7. NCCCC[C@H](NC(=O)/C=C/c1ccc(OP(=O)(O)O)cc1)C(=O)N1CCC[C@H]1C(=O)N[C@@H](Cc1ccccc1)C(N)=O
8. C/C(=C\C(=O)N[C@H](C(=O)N1CCC[C@H]1C(=O)NCc1ccccc1)C(C)(C)C)c1ccc(OP(=O)(O)O)cc1

Result:
6.06
6.60
6.32
7.55
5.90
5.35
5.07
6.47

This collection of values is drawn from ChEMBL document CHEMBL3739303.
